All values here come from paper PMC8998618.

- PROTOCOL: time-dependent metabolization (stability) in HLM and IVIVE of hepatic clearance
- Assay type: in vitro ADME, human
- EXPERIMENTAL_PARAMETERS: human, liver microsomes, scaled from CLint,micr
PROPERTY: CLint scaled at 2 µM (mL/min/kg)
Answers are plain numbers, in mL/min/kg.

input: Find the recorded CLint scaled at 2 µM belonging to C=C[C@@](C)(O)CC[C@H]1C(=C)C[C@H](OC(=O)NC)[C@H]2C(C)(C)CCC[C@]12C and report it.
output: 334

----------
- PROTOCOL: plasma pharmacokinetics after single i.v. and p.o. administration, NCA
- Type: in vivo, mice
- EXPERIMENTAL_PARAMETERS: male, C57BL/6, mouse, iv; mice, plasma, single 2.0 mg/kg BW i.v., NCA; read-out: t1/2 (converted)
PROPERTY: half-life (h)
Give bare numbers, in h.

input: Find the recorded half-life belonging to C=C[C@@](C)(O)CC[C@H]1C(=C)C[C@H](OC(=O)NC)[C@H]2C(C)(C)CCC[C@]12C [SH045] and report it.
output: 1.28

----------
- PROTOCOL: plasma pharmacokinetics after single i.v. and p.o. administration, NCA
- Type: in vivo, mice
- EXPERIMENTAL_PARAMETERS: male, C57BL/6, mouse, iv; mice, plasma, single 20 mg/kg BW i.v., NCA; read-out: t1/2 (converted)
PROPERTY: half-life

input: Find the recorded half-life belonging to C=C[C@@](C)(O)CC[C@H]1C(=C)C[C@H](OC(=O)NC)[C@H]2C(C)(C)CCC[C@]12C and report it.
output: 2.37 h

----------
- PROTOCOL: time-dependent metabolization (stability) in MLM and IVIVE of hepatic clearance
- Format: in vitro ADME, mouse
- EXPERIMENTAL_PARAMETERS: male, CD-1, pH 7.4; mouse liver microsomes 0.5 mg/mL, 2 µM SH045, NADPH
PROPERTY: half-life at 2 µM

input: Find the recorded half-life at 2 µM belonging to C=C[C@@](C)(O)CC[C@H]1C(=C)C[C@H](OC(=O)NC)[C@H]2C(C)(C)CCC[C@]12C [SH045] and report it.
output: 1.18 min

----------
- PROTOCOL: plasma pharmacokinetics after single i.v. and p.o. administration, NCA
- Format: in vivo, mice
- EXPERIMENTAL_PARAMETERS: male, C57BL/6, mouse, po; mice, plasma, single 2.0 mg/kg BW p.o., NCA
PROPERTY: AUC(0-t) (µg·h/mL)
Answers are plain numbers, in µg·h/mL.

input: Find the recorded AUC(0-t) belonging to C=C[C@@](C)(O)CC[C@H]1C(=C)C[C@H](OC(=O)NC)[C@H]2C(C)(C)CCC[C@]12C and report it.
output: 0.069

----------
- PROTOCOL: plasma pharmacokinetics after single i.v. and p.o. administration, NCA
- Type: in vivo, mice
- EXPERIMENTAL_PARAMETERS: male, C57BL/6, mouse, po; mice, plasma, single 20 mg/kg BW p.o., NCA
PROPERTY: AUC(0-t) (ng·h/mL)
Answers are plain numbers, in ng·h/mL.

input: Find the recorded AUC(0-t) belonging to C=C[C@@](C)(O)CC[C@H]1C(=C)C[C@H](OC(=O)NC)[C@H]2C(C)(C)CCC[C@]12C and report it.
output: 298

----------
- PROTOCOL: tissue distribution after single and repeated administration
- Format: in vivo, mice
- EXPERIMENTAL_PARAMETERS: male, C57BL/6, mouse, brain, iv, 20 mg/kg, 24 h after single (1×) 20 mg/kg BW i.v.; mean ± SEM; read-out: Concentration, Brain
PROPERTY: concentration at 24 h (ng/g)
Give bare numbers, in ng/g.

input: Find the recorded concentration at 24 h belonging to C=C[C@@](C)(O)CC[C@H]1C(=C)C[C@H](OC(=O)NC)[C@H]2C(C)(C)CCC[C@]12C and report it.
output: 14.8

----------
- PROTOCOL: tissue distribution after single and repeated administration
- Assay type: in vivo, mice
- EXPERIMENTAL_PARAMETERS: male, C57BL/6, mouse, kidney, iv, 20 mg/kg, 24 h after repeated (5 days, once a day) 20 mg/kg BW i.v.; mean ± SEM; read-out: Concentration, Kidney
PROPERTY: concentration at 24 h (ng/g)
Numbers only, in ng/g.

input: Find the recorded concentration at 24 h belonging to C=C[C@@](C)(O)CC[C@H]1C(=C)C[C@H](OC(=O)NC)[C@H]2C(C)(C)CCC[C@]12C and report it.
output: 17.8

----------
- PROTOCOL: tissue distribution after single and repeated administration
- Type: in vivo, mice
- EXPERIMENTAL_PARAMETERS: male, C57BL/6, mouse, kidney, iv, 20 mg/kg, 24 h after single (1×) 20 mg/kg BW i.v.; mean ± SEM; read-out: Concentration, Kidney
PROPERTY: concentration at 24 h (ng/g)
Give bare numbers, in ng/g.

input: Find the recorded concentration at 24 h belonging to C=C[C@@](C)(O)CC[C@H]1C(=C)C[C@H](OC(=O)NC)[C@H]2C(C)(C)CCC[C@]12C [SH045] and report it.
output: 14.8

----------
- PROTOCOL: plasma pharmacokinetics after single i.v. and p.o. administration, NCA
- Format: in vivo, mice
- EXPERIMENTAL_PARAMETERS: male, C57BL/6, mouse, po; mice, plasma, single 20 mg/kg BW p.o., NCA
- Method: Analysis of SH045 in samples from plasma, tissue, urine, and microsomal incubations was performed as previously described. Details are described in Supplementary Materials SM2. […] Pharmacokinetics parameters for SH045 were determined based on non-compartmental model analysis (NCA) using the Phoenix WinNonlin Software 8.3 (Certara, Princeton, NJ, USA). […] The systemic total body clearance from plasma (CLp) was calculated as applied dose divided by AUCinf. […]
PROPERTY: MRT

input: Find the recorded MRT belonging to C=C[C@@](C)(O)CC[C@H]1C(=C)C[C@H](OC(=O)NC)[C@H]2C(C)(C)CCC[C@]12C and report it.
output: 1.68 h
